Tested on: HDAC1 (Homo sapiens (Human), UniProt Q13547)
Sequence (Q13547 whole entry): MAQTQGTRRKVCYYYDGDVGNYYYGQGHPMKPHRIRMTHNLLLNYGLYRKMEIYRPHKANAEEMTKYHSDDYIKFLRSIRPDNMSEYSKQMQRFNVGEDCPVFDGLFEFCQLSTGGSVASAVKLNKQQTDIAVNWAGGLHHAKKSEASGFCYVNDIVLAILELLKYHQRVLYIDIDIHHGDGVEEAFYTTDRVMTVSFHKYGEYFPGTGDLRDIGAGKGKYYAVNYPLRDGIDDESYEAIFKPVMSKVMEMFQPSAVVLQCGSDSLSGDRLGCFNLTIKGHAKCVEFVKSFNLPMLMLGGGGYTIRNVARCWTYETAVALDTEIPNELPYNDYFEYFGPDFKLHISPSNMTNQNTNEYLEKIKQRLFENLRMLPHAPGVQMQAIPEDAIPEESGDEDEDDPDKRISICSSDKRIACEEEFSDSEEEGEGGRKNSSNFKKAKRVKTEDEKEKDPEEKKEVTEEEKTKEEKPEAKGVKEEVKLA
Assay summary: Recombinant HDAC inhibition assay (HDAC1)
Below is a list of entries, each paired with its recorded IC50 value.
# value in µM; strip the unit string

1) CCCNNC(=O)c1ccc(CNC(=O)c2ccccc2)cc1    0.0132
2) CCCCNNC(=O)c1ccc(CNC(=O)/C=C/c2ccccc2)cc1    0.0602
3) CCCCCCNNC(=O)c1ccc(CNC(=O)/C=C/c2ccccc2)cc1    0.0814

[ask] Endpoint output: IC50 of CCCCCNNC(=O)c1ccc(CNC(=O)/C=C/c2ccccc2)cc1 . Value?
[reply] 0.0474

[ask] Endpoint output: IC50 of CCCCCNNC(=O)c1ccc(CNC(=O)c2ccccc2)cc1 . Value?
[reply] 0.0202

[ask] Endpoint output: IC50 of CCNNC(=O)c1ccc(CNC(=O)/C=C/c2ccccc2)cc1 . Value?
[reply] 0.0295

[ask] Endpoint output: IC50 of CCCCNNC(=O)c1ccc(CNC(=O)c2ccccc2)cc1 . Value?
[reply] 0.0189

---

Tested on: UniProt O15379
Assay summary: Recombinant HDAC inhibition assay (HDAC3)
Values of IC50 strictly less than 600 nM map to satisfied, and values of at least 600 nM map to not satisfied.

Reference set (8 entries):
1. CCCCCCNNC(=O)c1ccc(CNC(=O)/C=C/c2ccccc2)cc1    satisfied
2. O=C(NCc1ccc(C(=O)NNCCC(F)(F)F)cc1)c1ccccc1    satisfied
3. O=C(NCc1ccc(C(=O)NNCC2CC2)cc1)c1ccccc1    satisfied
4. CCCCNNC(=O)c1cccs1 [Compound 1f, N′-butylthiophene-2-carbohydrazide]    not satisfied
5. CCCCNNC(=O)c1ccco1 [Compound 1g, N′-butylfuran-2-carbohydrazide]    not satisfied
6. CC/C=N/NC(=O)c1ccc(CNC(=O)c2ccccc2)cc1    not satisfied
7. CCNNC(=O)c1ccc(CNC(=O)/C=C/c2ccccc2)cc1    satisfied
8. CCCCNNC(=O)c1ccc(OC)cc1 [Compound 1a, N′-butyl-4-methoxybenzohydrazide]    satisfied

[ask] Hi there! Is IC50 for CCCCNNC(=O)c1ccc(Oc2ccccc2)cc1 [Compound 1c, N′-butyl-4-phenoxybenzohydrazide] below 600 nM, do you know?
[reply] satisfied

[ask] Hi there! Is IC50 for CCCCCCCCCCNNC(=O)c1ccc(CNC(=O)c2ccccc2)cc1 below 600 nM, do you know?
[reply] not satisfied

---

Tested on: HDAC2 (Homo sapiens (Human), UniProt Q92769)
Sequence (Q92769 whole entry): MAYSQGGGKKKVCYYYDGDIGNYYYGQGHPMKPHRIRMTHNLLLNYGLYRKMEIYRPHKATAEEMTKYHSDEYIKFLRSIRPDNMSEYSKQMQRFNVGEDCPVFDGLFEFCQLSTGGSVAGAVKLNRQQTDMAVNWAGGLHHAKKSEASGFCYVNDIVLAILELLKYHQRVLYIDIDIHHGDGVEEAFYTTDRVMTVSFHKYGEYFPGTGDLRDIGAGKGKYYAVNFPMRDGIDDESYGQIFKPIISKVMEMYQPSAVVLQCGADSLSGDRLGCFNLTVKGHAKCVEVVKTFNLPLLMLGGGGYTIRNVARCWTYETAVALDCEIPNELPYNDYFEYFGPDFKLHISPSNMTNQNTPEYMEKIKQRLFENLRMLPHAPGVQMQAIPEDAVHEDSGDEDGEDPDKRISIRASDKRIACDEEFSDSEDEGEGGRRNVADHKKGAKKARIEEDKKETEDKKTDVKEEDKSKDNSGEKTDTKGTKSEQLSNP
Assay summary: Recombinant HDAC inhibition assay (HDAC2)
Below is a list of entries, each paired with its recorded pIC50 value.
As a rule, pIC50 stands for the negative log10 of the concentration, concentration in M.

// below: answered compounds
1. CCCCCCNNC(=O)c1ccc(CNC(=O)/C=C/c2ccccc2)cc1    6.86
2. CCCCCNNC(=O)c1ccc(CNC(=O)/C=C/c2ccccc2)cc1    7.00
3. CCCCCNNC(=O)c1ccc(CNC(=O)c2ccccc2)cc1    7.36
4. CCNNC(=O)c1ccc(CNC(=O)/C=C/c2ccccc2)cc1    7.12

[ask] Endpoint output: pIC50 of CCCNNC(=O)c1ccc(CNC(=O)c2ccccc2)cc1 . Value?
[reply] 7.11

[ask] Endpoint output: pIC50 of CCCCNNC(=O)c1ccc(CNC(=O)/C=C/c2ccccc2)cc1 . Value?
[reply] 7.15

[ask] Endpoint output: pIC50 of CCCCNNC(=O)c1ccc(CNC(=O)c2ccccc2)cc1 . Value?
[reply] 7.19

---

Tested on: HDAC3 (Homo sapiens (Human))
Sequence (O15379 whole entry): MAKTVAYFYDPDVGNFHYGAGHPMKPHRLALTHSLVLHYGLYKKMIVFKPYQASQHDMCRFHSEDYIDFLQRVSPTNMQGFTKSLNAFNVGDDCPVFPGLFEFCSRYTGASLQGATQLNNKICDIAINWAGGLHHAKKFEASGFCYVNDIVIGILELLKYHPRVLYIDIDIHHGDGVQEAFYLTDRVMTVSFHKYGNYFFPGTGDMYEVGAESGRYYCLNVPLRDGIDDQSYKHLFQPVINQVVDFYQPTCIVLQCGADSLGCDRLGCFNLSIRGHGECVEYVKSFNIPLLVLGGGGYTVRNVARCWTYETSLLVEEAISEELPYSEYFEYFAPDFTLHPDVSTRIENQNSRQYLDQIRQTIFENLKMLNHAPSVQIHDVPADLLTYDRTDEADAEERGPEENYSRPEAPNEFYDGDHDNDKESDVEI
Sequence (Q9Y618 395-489 partner): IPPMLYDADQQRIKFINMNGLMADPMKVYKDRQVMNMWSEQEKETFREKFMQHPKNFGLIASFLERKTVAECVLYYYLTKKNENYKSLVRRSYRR
Assay summary: Recombinant HDAC inhibition assay (HDAC3)
# class assignment by measured IC50: A = under 200 nM, B = from 200 nM up to 1000 nM, C = 1000 nM and over

Reference set (5 entries):
1. CCCCNNC(=O)CCc1ccccc1 [Compound 1h, N′-butyl-3-phenylpropanehydrazide]    C
2. CCCCNNC(=O)c1cccnc1 [Compound 1d, N′-butylnicotinohydrazide]    C
3. CCNNC(=O)c1ccc(CNC(=O)c2ccccc2)cc1    A
4. CCCCCNNC(=O)c1ccc(CNC(=O)/C=C/c2ccccc2)cc1    A
5. CCCCCCCNNC(=O)c1ccc(CNC(=O)c2ccccc2)cc1    B

[ask] Categorize the following entry: CCCCNNC(=O)/C=C/c1ccccc1 [Compound 1i, N′-butylcinnamohydrazide]
[reply] B

[ask] Categorize the following entry: CCCCNNC(=O)c1cccc2ccccc12 [Compound 1j, N′-butyl-1-naphthohydrazide]
[reply] C

[ask] Categorize the following entry: CC(C)NNC(=O)c1ccc(CNC(=O)c2ccccc2)cc1
[reply] C

[ask] Categorize the following entry: CCCCNNC(=O)c1cc2ccccc2o1 [Compound 1b, N′-butylbenzofuran-2-carbohydrazide]
[reply] C

[ask] Categorize the following entry: O=C(NCc1ccc(C(=O)NNCC2CCC2)cc1)c1ccccc1
[reply] A

[ask] Categorize the following entry: C/C=C/CNNC(=O)c1ccc(CNC(=O)c2ccccc2)cc1
[reply] C

[ask] Categorize the following entry: CCCCCCNNC(=O)c1ccc(CNC(=O)c2ccccc2)cc1
[reply] A

[ask] Categorize the following entry: CCCCCCCCNNC(=O)c1ccc(CNC(=O)c2ccccc2)cc1
[reply] C
